TEST SYSTEM: PAK4 Kinase domain (PAK4 KD) (Homo sapiens)
Construct: Cloning, expression, and purification of recombinant PAK4 Kinase domain (PAK4 KD); His tag (pET28a(+)/pET24a(+), Ni-NTA purification) (N, cleaved yes); GST (pGST4.5, glutathione column) (N, cleaved yes)
Sequence (O96013 321-572 limits assumed): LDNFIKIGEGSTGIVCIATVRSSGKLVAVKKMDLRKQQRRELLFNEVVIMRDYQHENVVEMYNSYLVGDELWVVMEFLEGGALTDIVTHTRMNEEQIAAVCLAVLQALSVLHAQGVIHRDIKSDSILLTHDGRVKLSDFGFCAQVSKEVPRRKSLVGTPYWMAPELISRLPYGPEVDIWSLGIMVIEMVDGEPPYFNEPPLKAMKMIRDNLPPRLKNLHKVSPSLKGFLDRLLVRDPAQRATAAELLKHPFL
EXPERIMENT NOTES: PAK4 kinase domain enzymatic assay (PK/LDH-coupled, Ki)
PROTOCOL CONDITIONS: PAK4 Kinase Domain
OBSERVATION TYPE: log10 Ki (log10 of the value in nM)
Recorded Ki (log10, nM)

| COMPOUND | REPORTED MEASUREMENT |
| --- | --- |
| CN(C)C[C@@H](OC(=O)N1Cc2c(NC(=O)c3ccno3)n[nH]c2C1(C)C)c1ccccc1 [Example 85] | 2.16 |
| CN(C)CC(CC(=O)N1Cc2c(NC(=O)c3cccs3)n[nH]c2C1(C)C)c1ccc(Cl)cc1 (centres unmarked) [Example 97] | 2.04 |
| CC(C)C[C@@H](CN(C)C)OC(=O)N1Cc2c(NC(=O)c3ccc(F)cc3)n[nH]c2C1(C)C [Example 36] | 2.01 |
| CN(C)C[C@@H](NC(=O)N1Cc2c(NC(=O)c3nc4ccccc4s3)n[nH]c2C1(C)C)c1ccccc1 [Example 104] | 1.95 |
| CN(C)C[C@@H](OC(=O)N1Cc2c(NC(=O)c3ccc(F)cc3)n[nH]c2C1(C)C)C1CCCCC1 [Example 75] | 1.86 |

Input: Consider the compound CN(C)C[C@@H](OC(=O)N1Cc2c(NC(=O)c3cscn3)n[nH]c2C1(C)C)c1ccccc1 [Example 68] . State its measured log10 Ki.
Output: 1.68

Input: Let me know recorded log10 Ki for CN(C)C[C@@H](OC(=O)N1Cc2c(NC(=O)[C@H]3CCCO3)n[nH]c2C1(C)C)c1ccccc1 [Example 89] , thanks.
Output: 2.19

Input: Fill in reported log10 Ki for this entry: CN(C)C[C@@H](OC(=O)N1Cc2c(NC(=O)c3ccc(C(F)(F)F)cc3)n[nH]c2C1(C)C)c1ccccc1 [Example 5]
Output: 1.16

Input: For the compound CN(C)C[C@@H](OC(=O)N1Cc2c(NC(=O)c3ccccn3)n[nH]c2C1(C)C)c1ccccc1 [Example 6] , report log10 Ki.
Output: 1.49

Input: Return the recorded log10 Ki value; entry: COc1ccc(CC(=O)Nc2n[nH]c3c2CN(C(=O)N[C@H](CN(C)C)c2ccccc2)C3(C)C)cc1 [Example 55]
Output: 1.13

Input: Determine from records and report log10 Ki for CN(C)C[C@@H](NC(=O)N1Cc2c(NC(=O)c3cccs3)n[nH]c2C1(C)C)c1ccccc1 [Example 57]
Output: 1.05

Input: Output log10 Ki of CN(C)C[C@@H](OC(=O)N1Cc2c(NC(=O)C3CCCCO3)n[nH]c2C1(C)C)c1ccccc1 (some centres unmarked) [Example 16]
Output: 2.07

Input: Let me know recorded log10 Ki for CC1(C)c2[nH]nc(NC(=O)c3cccs3)c2CN1C(=O)N[C@H](CO)c1ccccc1 [Example 100] , thanks.
Output: 2.03

Input: Identify measured log10 Ki corresponding to CN(C)C[C@H](Cc1ccccc1)OC(=O)N1Cc2c(NC(=O)c3ccc(F)cc3)n[nH]c2C1(C)C [Example 76]
Output: 2.67

Input: Give reported log10 Ki value for CN(C)C[C@@H](NC(=O)N1Cc2c(NC(=O)c3cscn3)n[nH]c2C1(C)C)c1ccccc1 [Example 72]
Output: 1.97

Input: Indicate the recorded log10 Ki value for this compound: CCC(C(=O)Nc1n[nH]c2c1CN(C(=O)N[C@@H]1C[C@H]1c1ccccc1)C2(C)C)c1ccccc1 (relative stereo) [Example 107]
Output: 2.41

Input: Supply recorded log10 Ki for CC1(C)c2[nH]nc(NC(=O)c3cc4ccccc4s3)c2CN1C(=O)N[C@H](CO)c1ccccc1 [Example 99] here.
Output: 1.83

Input: Return the recorded log10 Ki value; entry: CN(C)C[C@@H](NC(=O)N1Cc2c(NC(=O)c3ccc(F)cc3)n[nH]c2C1(C)C)c1ccccc1 [Example 47]
Output: 1.73

Input: Please indicate log10 Ki recorded for Cc1cc(C(=O)Nc2n[nH]c3c2CN(C(=O)O[C@H](CN(C)C)c2ccccc2)C3(C)C)no1 [Example 86]
Output: 1.84

Input: Dear colleague, please send me the reported log10 Ki for CN(C)C[C@@H](OC(=O)N1Cc2c(NC(=O)c3ccccc3)n[nH]c2C1(C)C)c1ccccn1 [Example 24] when you can.
Output: 1.80
